Kindly supply the reported Kd values for the records listed here.
- target_of_assay: Acetylcholine-binding protein (Lymnaea stagnalis)
- Sequence (P58154 whole entry): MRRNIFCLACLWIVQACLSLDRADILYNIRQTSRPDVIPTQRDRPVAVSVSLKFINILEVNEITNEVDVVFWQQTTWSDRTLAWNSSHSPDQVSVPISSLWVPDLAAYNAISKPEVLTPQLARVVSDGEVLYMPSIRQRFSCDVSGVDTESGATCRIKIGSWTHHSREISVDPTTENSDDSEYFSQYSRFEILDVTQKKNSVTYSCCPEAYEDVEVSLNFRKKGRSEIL
- measurement_description: Interaction Assay
- experimental_context: pH 7.4; 25 °C
# output: bare number, implied unit nM

What reported Kd corresponds to N[C@@H]1C2CCN(CC2)C1Cc1cccnc1 (some centres undefined) [Quinuclidine analogue, 2] on Acetylcholine-binding protein (Lymnaea stagnalis)?
345

I'm curious: which Kd was measured for O=C(N[C@@H]1C2CCN(CC2)C1Cc1cccnc1)c1cc2ccccc2o1 (some centres undefined) [Quinuclidine analogue, 5] tested on Acetylcholine-binding protein (Lymnaea stagnalis)?
12.8

API: value(readout=Kd, system=Acetylcholine-binding protein (Lymnaea stagnalis)) for record O=C(N[C@@H]1C2CCN(CC2)C1Cc1cccnc1)c1ccccc1 (some centres undefined) [Quinuclidine analogue, 3]
141

GET /values?readout=Kd&system=Acetylcholine-binding protein (Lymnaea stagnalis)&item= CN(C)CCc1cccnc1 [Quinuclidine analogue, 1]
4250
